Listing of recorded Cp(f) by entry.
# procedure details: Free plasma concentration in rat plasma at 1 mg/kg administered as cassette dose
# Type: ADME, organism-based
# run parameters: in vivo

| molecule smiles | Cp(f) |
| --- | --- |
| CC(C)Oc1ccc(/N=c2\[nH]c(=O)n(C[C@H](C)C(=O)O)c(=O)n2Cc2ccc(Cl)cc2)cc1F | 1126 nM |
| Cc1ccc(Cn2c(=O)n(C[C@H](C)C(=O)O)c(=O)[nH]/c2=N\c2ccc(OC(C)C)c(Cl)c2)cc1 | 692 nM |
| Cc1cc(/N=c2\[nH]c(=O)n(C[C@H](C)C(=O)O)c(=O)n2Cc2ccc(Cl)cc2)ccc1OC(C)C | 924 nM |
| CC(C)Oc1ccc(/N=c2\[nH]c(=O)n(CCCC(=O)O)c(=O)n2Cc2ccc(Cl)cc2)cc1Cl | 1600 nM |
| CC(C)Oc1ccc(/N=c2\[nH]c(=O)n(CC(C)(C)C(=O)O)c(=O)n2Cc2ccc(Cl)cc2)cc1Cl | 485 nM |
| C[C@@H](Cn1c(=O)[nH]/c(=N\c2ccc(OC3CCC3)cc2)n(Cc2ccc(Cl)cc2)c1=O)C(=O)O | 462 nM |
| CC(C)Oc1ccc(/N=c2\[nH]c(=O)n(C[C@@H](O)CO)c(=O)n2Cc2ccc(Cl)cc2)cc1Cl | 1627 nM |
| CC(C)Oc1ccc(Nc2nc(=O)n(CCCO)c(=O)n2Cc2ccc(Cl)cc2)cc1Cl | 711 nM |

###

Listing of recorded Ratio by entry.
# procedure details: Ratio of plasma concentration in rat measured after 3 hrs to IC50 of P2X3 (unknown origin)
# Type: ADME
# run parameters: in vivo

| molecule smiles | Ratio |
| --- | --- |
| C[C@@H](Cn1c(=O)[nH]/c(=N\c2ccc(OCC3CC3)cc2)n(Cc2ccc(Cl)cc2)c1=O)C(=O)O | 37.6 |
| CC(C)Oc1ccc(/N=c2\[nH]c(=O)n(CC(C)(C)C(=O)O)c(=O)n2Cc2ccc(Cl)cc2)cc1Cl | 72.4 |
| CC(C)Oc1ccc(/N=c2\[nH]c(=O)n(CCCC(=O)O)c(=O)n2Cc2ccc(Cl)cc2)cc1Cl | 119.4 |
| CC(C)Oc1ccc(Nc2nc(=O)n(CCO)c(=O)n2Cc2ccc(Cl)cc2)cc1Cl | 204.9 |
| C[C@@H](Cn1c(=O)[nH]/c(=N\c2ccc(Oc3cnccn3)cc2)n(Cc2ccc(Cl)cc2)c1=O)C(=O)O | 56.2 |
| CC(C)Oc1ccc(/N=c2\[nH]c(=O)n(C[C@@H](C)C(=O)O)c(=O)n2Cc2ccc(Cl)cc2)cc1Cl | 62.2 |
| C[C@@H](Cn1c(=O)[nH]/c(=N\c2ccc(OC3CCC3)cc2)n(Cc2ccc(Cl)cc2)c1=O)C(=O)O | 30.4 |
| CC(C)Oc1ccc(Nc2nc(=O)n(CC(CO)CO)c(=O)n2Cc2ccc(Cl)cc2)cc1Cl | 89.2 |

###

Listing of recorded bioavailability by entry.
# procedure details: Oral bioavailability in rat at 1 mg/kg administered as cassette dose
# Assay type: ADME, organism-based
# run parameters: in vivo

| molecule smiles | bioavailability (%) |
| --- | --- |
| C[C@@H](Cn1c(=O)[nH]/c(=N\c2ccc(OC3CCC3)cc2)n(Cc2ccc(Cl)cc2)c1=O)C(=O)O | 54.3 |
| C[C@@H](Cn1c(=O)[nH]/c(=N\c2ccc(Oc3cccnn3)cc2)n(Cc2ccc(Cl)cc2)c1=O)C(=O)O | 30.2 |
| CC(C)COc1ccc(/N=c2\[nH]c(=O)n(C[C@H](C)C(=O)O)c(=O)n2Cc2ccc(Cl)cc2)cc1 | 48.7 |
| CC(C)Oc1ccc(Nc2nc(=O)n(CCC(=O)O)c(=O)n2Cc2ccc(Cl)cc2)cc1Cl | 71.2 |
| CC(C)Oc1ccc(/N=c2\[nH]c(=O)n(C[C@@H](O)CO)c(=O)n2Cc2ccc(Cl)cc2)cc1Cl | 63 |
| C[C@@H](Cn1c(=O)[nH]/c(=N\c2ccc(Oc3ccnc(F)c3)cc2)n(Cc2ccc(Cl)cc2)c1=O)C(=O)O | 43.2 |
| CC(C)Oc1ccc(Nc2nc(=O)n(CCO)c(=O)n2Cc2ccc(Cl)cc2)cc1Cl | 48.1 |
| C[C@@H](Cn1c(=O)[nH]/c(=N\c2ccc(Oc3ccc(F)cn3)cc2)n(Cc2ccc(Cl)cc2)c1=O)C(=O)O | 82.4 |
| C[C@@H](Cn1c(=O)[nH]/c(=N\c2ccc(Oc3cccc(F)n3)cc2)n(Cc2ccc(Cl)cc2)c1=O)C(=O)O | 60 |
| Cc1ccc(Cn2c(=O)n(CCCC(=O)O)c(=O)[nH]/c2=N\c2ccc(OC(C)C)c(Cl)c2)cc1 | 108 |
| Cc1ccc(Cn2c(=O)n(CC(C)(C)C(=O)O)c(=O)[nH]/c2=N\c2ccc(OC(C)C)c(Cl)c2)cc1 | 30.7 |
| Cc1ccc(Cn2c(=O)n(C[C@H](C)C(=O)O)c(=O)[nH]/c2=N\c2ccc(OC(C)C)c(Cl)c2)cc1 | 73.1 |
| CC(C)Oc1ccc(/N=c2\[nH]c(=O)n(C[C@H](C)C(=O)O)c(=O)n2Cc2ccc(Cl)cc2)cc1 | 88.8 |
| CC(C)Oc1ccc(/N=c2\[nH]c(=O)n(C[C@H](C)C(=O)O)c(=O)n2Cc2ccc(Cl)cc2)cc1Cl | 82.4 |
| CC(C)Oc1ccc(/N=c2\[nH]c(=O)n(C[C@H](C)C(=O)O)c(=O)n2Cc2ccc(Cl)cc2)cc1F | 96 |
| C[C@@H](Cn1c(=O)[nH]/c(=N\c2ccc(Oc3ccsn3)cc2)n(Cc2ccc(Cl)cc2)c1=O)C(=O)O | 87.6 |
| C[C@@H](Cn1c(=O)[nH]/c(=N\c2ccc(Oc3nccs3)cc2)n(Cc2ccc(Cl)cc2)c1=O)C(=O)O | 41.4 |
| CC(C)Oc1ccc(Nc2nc(=O)n(CC(CO)CO)c(=O)n2Cc2ccc(Cl)cc2)cc1Cl | 54.8 |
| CC(C)Oc1ccc(/N=c2\[nH]c(=O)n(CCCC(=O)O)c(=O)n2Cc2ccc(Cl)cc2)cc1Cl | 43.2 |
| CC(C)Oc1ccc(Nc2nc(=O)n(CCCO)c(=O)n2Cc2ccc(Cl)cc2)cc1Cl | 36.2 |
| CC(C)Oc1ccc(/N=c2\[nH]c(=O)n(CC(C)(C)C(=O)O)c(=O)n2Cc2ccc(Cl)cc2)cc1Cl | 85.3 |
| C[C@@H](Cn1c(=O)[nH]/c(=N\c2ccc(Oc3ccccn3)cc2)n(Cc2ccc(Cl)cc2)c1=O)C(=O)O | 52.8 |
| Cc1cc(/N=c2\[nH]c(=O)n(C[C@H](C)C(=O)O)c(=O)n2Cc2ccc(Cl)cc2)ccc1OC(C)C | 102 |
| C[C@@H](Cn1c(=O)[nH]/c(=N\c2ccc(OCC3CC3)cc2)n(Cc2ccc(Cl)cc2)c1=O)C(=O)O | 45.6 |
| CC.C[C@@H](Cn1c(=O)[nH]/c(=N\c2ccc(Oc3cc(F)ccn3)cc2)n(Cc2ccc(Cl)cc2)c1=O)C(=O)O | 40.2 |
| C[C@@H](Cn1c(=O)[nH]/c(=N\c2ccc(Oc3cncc(F)c3)cc2)n(Cc2ccc(Cl)cc2)c1=O)C(=O)O | 74.3 |
| C[C@@H](Cn1c(=O)[nH]/c(=N\c2ccc(Oc3cnccn3)cc2)n(Cc2ccc(Cl)cc2)c1=O)C(=O)O | 56.5 |
| CC(C)Oc1ccc(/N=c2\[nH]c(=O)n(C[C@@H](C)C(=O)O)c(=O)n2Cc2ccc(Cl)cc2)cc1Cl | 108 |
